# MIC listing for each entry below
- System: Staphylococcus aureus
- assay_protocol: Antimicrobial activity against Staphylococcus aureus 5 expressing inducible ermB after 20 hrs by agar dilution method
- Format: functional
Give just the numeric value; µg/mL need not be written.

Lab book: MIC of CCOC(=O)[C@H]1[C@H](C)O[C@@H](O[C@H]2[C@H](N(C)C)[C@@H](O)[C@H](O[C@H]3[C@@H](CC=O)C[C@@H](C)[C@@H](O)CN(C)CC(/C=C\Cc4ccnc5ccccc45)CCOC(=O)C[C@@H](OC(=O)CC)[C@@H]3OC)O[C@@H]2C)C[C@@]1(C)O (stereo in doubt; form 2) noted as 2

The compound listed as CCOC(=O)[C@H]1[C@H](C)O[C@@H](O[C@H]2[C@H](N(C)C)[C@@H](O)[C@H](O[C@H]3[C@@H](CC=O)C[C@@H](C)[C@@H](O)CN(C)CCC(C/C=C/c4cnc5ccccc5c4)NC(=O)C[C@@H](OC(=O)CC)[C@@H]3OC)O[C@@H]2C)C[C@@]1(C)O (stereo in doubt; form 2) has a reported MIC of 1

// sample CCOC(=O)[C@H]1[C@H](C)O[C@@H](O[C@H]2[C@H](N(C)C)[C@@H](O)[C@H](O[C@H]3[C@@H](CC=O)C[C@@H](C)[C@@H](O)CN(C)CC(/C=C/Cc4cnc5ccccc5c4)CCOC(=O)C[C@@H](OC(=O)CC)[C@@H]3OC)O[C@@H]2C)C[C@@]1(C)O (stereo in doubt; form 2) , its MIC was 0.25

---

- System: Streptococcus pneumoniae
- assay_protocol: Antimicrobial activity against Streptococcus pneumoniae 10 expressing mefA after 20 hrs by agar dilution method
- Assay type: functional
- condition_set: Streptococcus pneumoniae, 20 h; read-out: MIC
assay_endpoint: MIC (µg/mL)
Value expressed in µg/mL; do not type the unit.

CCOC(=O)[C@H]1[C@H](C)O[C@@H](O[C@H]2[C@H](N(C)C)[C@@H](O)[C@H](O[C@H]3[C@@H](CC=O)C[C@@H](C)[C@@H](O)CN(C)CCC(CCCc4cnc5ccccc5c4)NC(=O)C[C@@H](OC(=O)CC)[C@@H]3OC)O[C@@H]2C)C[C@@]1(C)O (mixture of isomers)
0.06

In the following, a different molecule is considered.
"CCOC(=O)[C@H]1[C@H](C)O[C@@H](O[C@H]2[C@H](N(C)C)[C@@H](O)[C@H](O[C@H]3[C@@H](CC=O)C[C@@H](C)[C@@H](OC(C)=O)CN(CCCCc4ccccc4)CC[C@@H](C)OC(=O)C[C@@H](OC(=O)CC)[C@@H]3OC)O[C@@H]2C)C[C@@]1(C)OC(C)=O" yielded MIC of 0.25

---

- System: Streptococcus pneumoniae
- assay_protocol: Antimicrobial activity against Streptococcus pneumoniae 10 expressing mefA after 20 hrs by agar dilution method
- Assay type: functional
- condition_set: Streptococcus pneumoniae, 20 h; read-out: MIC
Recorded MIC by entry
Your answer is read as µg/mL, so omit the unit and give the number.

CCOC(=O)[C@H]1[C@H](C)O[C@@H](O[C@H]2[C@H](N(C)C)[C@@H](O)[C@H](O[C@H]3[C@@H](CC=O)C[C@@H](C)[C@@H](O)CN(CCCc4ccnc5ccccc45)CCCNC(=O)C[C@@H](OC(=O)CC)[C@@H]3OC)O[C@@H]2C)C[C@@]1(C)O
0.13
CCOC(=O)[C@H]1[C@H](C)O[C@@H](O[C@H]2[C@H](N(C)C)[C@@H](O)[C@H](O[C@H]3[C@@H](CC=O)C[C@@H](C)[C@@H](O)CN(C)CCC[C@H](C/C=C/c4cccnc4)OC(=O)C[C@@H](OC(=O)CC)[C@@H]3OC)O[C@@H]2C)C[C@@]1(C)O
0.03
CCOC(=O)[C@H]1[C@H](C)O[C@@H](O[C@H]2[C@H](N(C)C)[C@@H](O)[C@H](O[C@H]3[C@@H](CC=O)C[C@@H](C)[C@@H](O)CN(C)CCC[C@@H](C/C=C/c4ccnc5ccccc45)OC(=O)C[C@@H](OC(=O)CC)[C@@H]3OC)O[C@@H]2C)C[C@@]1(C)O
0.13
CCC(=O)O[C@@H]1CC(=O)NCCCN(CCCc2ccnc3ccccc23)C[C@H](O)[C@H](C)C[C@H](CC=O)[C@H](O[C@@H]2O[C@H](C)[C@@H](O)[C@H](N(C)C)[C@H]2O)[C@H]1OC
32
CCOC(=O)[C@H]1[C@H](C)O[C@@H](O[C@H]2[C@H](N(C)C)[C@@H](O)[C@H](O[C@H]3[C@@H](CC=O)C[C@@H](C)[C@@H](O)CN(C)CCC[C@H](CCCc4ccnc5ccccc45)OC(=O)C[C@@H](OC(=O)CC)[C@@H]3OC)O[C@@H]2C)C[C@@]1(C)O
0.06
CCOC(=O)[C@H]1[C@H](C)O[C@@H](O[C@H]2[C@H](N(C)C)[C@@H](O)[C@H](O[C@H]3[C@@H](CC=O)C[C@@H](C)[C@@H](O)CN(CCCCc4ccccc4)CCC(C)NC(=O)C[C@@H](OC(=O)CC)[C@@H]3OC)O[C@@H]2C)C[C@@]1(C)OC(C)=O (stereo in doubt; form 1)
0.25

The record that follows has no MIC shown yet.
MIC for "CCOC(=O)[C@H]1[C@H](C)O[C@@H](O[C@H]2[C@H](N(C)C)[C@@H](O)[C@H](O[C@H]3[C@@H](CC=O)C[C@@H](C)[C@@H](O)CN(CCCCc4ccccc4)CCCNC(=O)C[C@@H](OC(=O)CC)[C@@H]3OC)O[C@@H]2C)C[C@@]1(C)OC(C)=O" is 0.25

---

- Tested on: Staphylococcus aureus
- assay_protocol: Antimicrobial activity against Staphylococcus aureus 6 expressing inducible ermC after 20 hrs by agar dilution method
assay_endpoint: MIC (µg/mL)
Hi! Could you send only the number? It should be in µg/mL, unit omitted.

// solved cases for MIC follow
CCOC(=O)[C@H]1[C@H](C)O[C@@H](O[C@H]2[C@H](N(C)C)[C@@H](O)[C@H](O[C@H]3[C@@H](CC=O)C[C@@H](C)[C@@H](O)CN(C)CCC(C/C=C/c4ccnc5ccccc45)NC(=O)C[C@@H](OC(=O)CC)[C@@H]3OC)O[C@@H]2C)C[C@@]1(C)O (stereo in doubt)
4
CCOC(=O)[C@H]1[C@H](C)O[C@@H](O[C@H]2[C@H](N(C)C)[C@@H](O)[C@H](O[C@H]3[C@@H](CC=O)C[C@@H](C)[C@@H](O)CN(C)CC(CCCc4ccnc5ccccc45)CCOC(=O)C[C@@H](OC(=O)CC)[C@@H]3OC)O[C@@H]2C)C[C@@]1(C)O (stereo in doubt; form 2)
0.5

CCOC(=O)[C@H]1[C@H](C)O[C@@H](O[C@H]2[C@H](N(C)C)[C@@H](O)[C@H](O[C@H]3[C@@H](CC=O)C[C@@H](C)[C@@H](O)CN(C)CCC(/C=C/Cc4ccnc5ccccc45)NC(=O)C[C@@H](OC(=O)CC)[C@@H]3OC)O[C@@H]2C)C[C@@]1(C)O (mixture of isomers) on Staphylococcus aureus gives MIC = 0.5

Form: item CCOC(=O)[C@H]1[C@H](C)O[C@@H](O[C@H]2[C@H](N(C)C)[C@@H](O)[C@H](O[C@H]3[C@@H](CC=O)C[C@@H](C)[C@@H](O)CN(C)CCC(CCCc4ccnc5ccccc45)NC(=O)C[C@@H](OC(=O)CC)[C@@H]3OC)O[C@@H]2C)C[C@@]1(C)O (stereo in doubt; form 2) ; test system Staphylococcus aureus; MIC: 4

# CCOC(=O)[C@H]1[C@H](C)O[C@@H](O[C@H]2[C@H](N(C)C)[C@@H](O)[C@H](O[C@H]3[C@@H](CC=O)C[C@@H](C)[C@@H](O)CN(C)CC(/C=C\Cc4ccnc5ccccc45)CCOC(=O)C[C@@H](OC(=O)CC)[C@@H]3OC)O[C@@H]2C)C[C@@]1(C)O (stereo in doubt; form 1) with Staphylococcus aureus: MIC is 0.5

MIC value, target or system Staphylococcus aureus, for CCOC(=O)[C@H]1[C@H](C)O[C@@H](O[C@H]2[C@H](N(C)C)[C@@H](O)[C@H](O[C@H]3[C@@H](CC=O)C[C@@H](C)[C@@H](O)CN(C)CC(/C=C/Cc4ccnc5ccccc45)CCOC(=O)C[C@@H](OC(=O)CC)[C@@H]3OC)O[C@@H]2C)C[C@@]1(C)O (stereo in doubt; form 2) : 0.5

Observed MIC, Staphylococcus aureus, CCOC(=O)[C@H]1[C@H](C)O[C@@H](O[C@H]2[C@H](N(C)C)[C@@H](O)[C@H](O[C@H]3[C@@H](CC=O)C[C@@H](C)[C@@H](O)CN(C)CCC(C/C=C/c4ccnc5ccccc45)NC(=O)C[C@@H](OC(=O)CC)[C@@H]3OC)O[C@@H]2C)C[C@@]1(C)O (single isomer, unassigned) : 1

---

- Test system: Haemophilus influenzae
- assay_protocol: Antimicrobial activity against drug-susceptible Haemophilus influenzae 2 after 20 hrs by agar dilution method
- Assay type: functional
- condition_set: Haemophilus influenzae, 20 h; read-out: MIC
assay_endpoint: MIC (µg/mL)
Kindly provide the numeric value in µg/mL only, without the unit symbol.

CCOC(=O)[C@H]1[C@H](C)O[C@@H](O[C@H]2[C@H](N(C)C)[C@@H](O)[C@H](O[C@H]3[C@@H](CC=O)C[C@@H](C)[C@@H](O)CN(C)CCC(CCCc4cnc5ccccc5c4)NC(=O)C[C@@H](OC(=O)CC)[C@@H]3OC)O[C@@H]2C)C[C@@]1(C)O (mixture of isomers)
1

Consider the record given below.
The recorded MIC for CCOC(=O)[C@H]1[C@H](C)O[C@@H](O[C@H]2[C@H](N(C)C)[C@@H](O)[C@H](O[C@H]3[C@@H](CC=O)C[C@@H](C)[C@@H](O)CN(C)CC(/C=C/Cc4cccc5cccnc45)CCOC(=O)C[C@@H](OC(=O)CC)[C@@H]3OC)O[C@@H]2C)C[C@]1(C)O (some centres not stated) is 2
